Listing of recorded IC50 by entry.
# TARGET: NDM-1 (Klebsiella pneumoniae, UniProt C7C422)
# Sequence (C7C422 whole entry, looked up, species assumed): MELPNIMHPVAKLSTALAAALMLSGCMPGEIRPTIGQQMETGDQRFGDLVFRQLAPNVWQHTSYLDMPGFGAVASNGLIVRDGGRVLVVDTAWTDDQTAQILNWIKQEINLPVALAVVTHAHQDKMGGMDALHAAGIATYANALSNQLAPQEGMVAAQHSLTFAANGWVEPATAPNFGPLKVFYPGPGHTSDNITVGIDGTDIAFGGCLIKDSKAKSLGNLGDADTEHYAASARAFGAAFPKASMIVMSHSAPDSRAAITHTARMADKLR
# ASSAY_EXPLANATION: biochemical
# Assay type: biochemical
# CONDITION_DESCRIPTION: NDM-1 enzyme, CCF2-FA fluorescence assay; read-out: NDM-1 IC50
QUANTITY_KIND: IC50

1. Cc1ccc(-c2ccc(Br)c(S(N)(=O)=O)c2-c2nn[nH]n2)cc1    1.81 nM
2. NS(=O)(=O)c1cccc(-c2ccn3cncc3c2)c1-c1nn[nH]n1    14.6 nM
3. N=CNCc1ccc(-c2ccc(Br)c(S(N)(=O)=O)c2-c2nn[nH]n2)cc1    13.5 nM
4. CN1[C@@H]2CC[C@H]1CC(NCc1ccc(-c3cccc(S(N)(=O)=O)c3-c3nnn[nH]3)cc1)C2 (some centres unmarked)    18.2 nM
5. NC(=O)c1nccc2cc(-c3cccc(S(N)(=O)=O)c3-c3nn[nH]n3)ccc12    0.342 nM
6. Nc1ccc2cc(-c3cccc(S(N)(=O)=O)c3-c3nnn[nH]3)ccc2n1    2.34 nM
7. NS(=O)(=O)c1cccc(-c2ccc(CN3CCC(C(=O)O)C3)cc2)c1-c1nnn[nH]1 (centres unmarked)    24.7 nM
8. NS(=O)(=O)c1cccc(-c2ccccc2O)c1-c1nn[nH]n1    3.65 nM
